# Test system: RARb:RXRa (NR concentration 270 nM, RXRa partner concentration 90 nM)
# assay-summary: PBM binding z-score (relative to random genomic background probes); higher = stronger binding; sequences stand for … in GC…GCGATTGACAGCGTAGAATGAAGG
observation-type: PBM binding z-score
Give the value as a plain number.

Quick note, PBM binding z-score for "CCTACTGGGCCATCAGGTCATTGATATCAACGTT" landed at 2.1

Entry "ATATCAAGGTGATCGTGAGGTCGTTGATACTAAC" ; PBM binding z-score = 1.69

Sample "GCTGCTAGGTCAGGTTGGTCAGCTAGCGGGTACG" ; PBM binding z-score observed: 3.38

// "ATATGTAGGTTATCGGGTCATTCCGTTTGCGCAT" : PBM binding z-score value = 2.65

Lab note: "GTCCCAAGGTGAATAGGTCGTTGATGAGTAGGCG" gave PBM binding z-score of 2.12

According to the records, this sequence "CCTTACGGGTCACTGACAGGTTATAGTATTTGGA" displays PBM binding z-score of 3.93

In plain terms, "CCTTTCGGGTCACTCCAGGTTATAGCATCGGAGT" has a documented PBM binding z-score of 4.01

Entry "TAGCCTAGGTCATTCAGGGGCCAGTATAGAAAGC" , PBM binding z-score reported as 3.79

// "CGTCCAAGGTCTGCAGGTCAGTGAAAGCGACGTG" : PBM binding z-score value = 2.16

Reported PBM binding z-score for "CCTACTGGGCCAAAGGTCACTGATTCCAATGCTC" was 4.56

What the record says about "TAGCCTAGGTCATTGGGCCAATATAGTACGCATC" : PBM binding z-score is 3.6

Record "GCTTACGGGTCAAAGGGTATAGCATGAATAGAAT" , field PBM binding z-score: 4.09

Lab note: measured PBM binding z-score of "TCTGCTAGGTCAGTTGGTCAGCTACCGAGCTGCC" was 3.14

get_value(item= "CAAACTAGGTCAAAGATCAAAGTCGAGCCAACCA" , readout=PBM binding z-score) returns 3.99

Lab note: measured PBM binding z-score of "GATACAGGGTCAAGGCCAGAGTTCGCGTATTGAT" was 4.49

Per the record, "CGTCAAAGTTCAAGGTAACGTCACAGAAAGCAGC" has PBM binding z-score of 5.18

PBM binding z-score recorded for this sequence, "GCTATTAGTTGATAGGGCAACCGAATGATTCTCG" , is 0.561

Reported PBM binding z-score ( "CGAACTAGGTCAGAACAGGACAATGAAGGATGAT" ) = 2.98

For "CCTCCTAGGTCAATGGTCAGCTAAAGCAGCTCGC" the sequence record lists PBM binding z-score as 3.77

Entry "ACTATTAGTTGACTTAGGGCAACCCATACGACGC" ; PBM binding z-score = 0.823

The sequence "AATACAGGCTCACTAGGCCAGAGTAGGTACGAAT" showed PBM binding z-score equal to -0.981

Just so you know, measured PBM binding z-score for "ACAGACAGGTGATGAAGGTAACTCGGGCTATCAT" came out at 0.263

The value of PBM binding z-score measured for the sequence "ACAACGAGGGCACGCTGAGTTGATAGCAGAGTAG" turned out to be 2.63

---

Task for the reader: assign each of the following sequences its reported PBM binding z-score.
# Tested on: VDR homodimer (NR concentration 270 nM)
# assay-summary: PBM binding z-score (relative to random genomic background probes); higher = stronger binding; sequences stand for … in GC…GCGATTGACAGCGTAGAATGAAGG
Just the number.

For record "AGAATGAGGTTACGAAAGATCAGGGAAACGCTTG" the listed PBM binding z-score is 0.194

Short answer for "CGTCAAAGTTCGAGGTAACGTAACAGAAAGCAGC" : PBM binding z-score was 1.2

Short answer for "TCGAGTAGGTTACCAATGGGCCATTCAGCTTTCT" : PBM binding z-score was -0.805

According to the records, this sequence "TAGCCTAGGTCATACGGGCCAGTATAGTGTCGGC" displays PBM binding z-score of 0.783

Input "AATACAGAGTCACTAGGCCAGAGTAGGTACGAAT" . Output PBM binding z-score: -0.0774

# sequence "TCATATAGGTAAACAGGTGAAAGTGCGTAAGTTA" ; its PBM binding z-score = 0.623

Value of measured PBM binding z-score for the entry "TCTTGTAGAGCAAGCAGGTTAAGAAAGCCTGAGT" : -0.461

Record summary for "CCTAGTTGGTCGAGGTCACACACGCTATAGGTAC" : reported PBM binding z-score = 4.51

For reference, reported PBM binding z-score for "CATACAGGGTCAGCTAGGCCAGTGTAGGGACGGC" stands at 1.07

Entry under test: "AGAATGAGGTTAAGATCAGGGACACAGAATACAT" . Its PBM binding z-score was 1.12

Lab note: "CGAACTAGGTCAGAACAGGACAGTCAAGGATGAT" gave PBM binding z-score of 0.29

The reported PBM binding z-score of the sequence "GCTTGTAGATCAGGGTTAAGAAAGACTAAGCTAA" was 0.148

The sequence identified as "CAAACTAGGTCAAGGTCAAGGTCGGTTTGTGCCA" registered its PBM binding z-score at 4.06

For reference, reported PBM binding z-score for "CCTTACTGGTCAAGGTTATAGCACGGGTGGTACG" stands at 0.749

Record summary for "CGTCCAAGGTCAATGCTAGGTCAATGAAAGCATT" : reported PBM binding z-score = 3.48

PBM binding z-score reading for "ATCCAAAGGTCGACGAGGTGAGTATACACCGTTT" : 0.772

Per the record, "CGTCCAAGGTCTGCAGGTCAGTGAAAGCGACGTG" has PBM binding z-score of -0.462

Form: sequence = "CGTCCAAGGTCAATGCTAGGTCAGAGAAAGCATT" ; PBM binding z-score = 2.77

# PBM binding z-score (sequence: "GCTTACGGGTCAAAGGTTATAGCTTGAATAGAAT" ) is 1.45

Measured PBM binding z-score of "CAAACTAGGTCACCGGAAGGTGAAAGTCCGCATG" : 0.904

PBM binding z-score for "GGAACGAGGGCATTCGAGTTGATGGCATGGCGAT" is 3.46

// "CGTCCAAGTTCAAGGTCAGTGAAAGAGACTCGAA" : PBM binding z-score value = 4.98

Recorded result, "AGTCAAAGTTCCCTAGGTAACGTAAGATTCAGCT" , PBM binding z-score: -0.324

Per the records, this sequence ( "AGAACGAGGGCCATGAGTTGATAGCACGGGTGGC" ) has PBM binding z-score equal to 0.371

The sequence identified as "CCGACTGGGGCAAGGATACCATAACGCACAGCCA" registered its PBM binding z-score at -0.376

PBM binding z-score in this record for "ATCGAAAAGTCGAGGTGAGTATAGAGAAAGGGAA" : -0.198

Form field PBM binding z-score, entry "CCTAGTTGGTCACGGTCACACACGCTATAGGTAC" : 0.987

Lab note: "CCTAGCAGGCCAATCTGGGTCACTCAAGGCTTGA" gave PBM binding z-score of 0.000728

For "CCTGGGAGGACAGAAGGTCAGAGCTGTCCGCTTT" the sequence record lists PBM binding z-score as 0.289

---

# Test system: PXR homodimer (NR concentration 270 nM)
# assay-summary: PBM binding z-score (relative to random genomic background probes); higher = stronger binding; sequences stand for … in GC…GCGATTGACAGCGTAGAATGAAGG
Decision: PBM binding z-score compared against -0.06; not below it gives yes, below it gives no.

In plain terms: is recorded PBM binding z-score at least -0.06 for "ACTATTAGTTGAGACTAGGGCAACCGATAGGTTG" ? no

# check: PBM binding z-score of "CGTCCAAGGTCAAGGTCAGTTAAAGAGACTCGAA" is greater than or equal to -0.06 yes

Hi team, for "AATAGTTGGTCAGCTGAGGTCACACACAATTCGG" , is the recorded PBM binding z-score at or above -0.06? yes

Check if PBM binding z-score >= -0.06 (inclusive). Item: "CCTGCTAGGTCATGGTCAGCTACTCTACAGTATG" no

Record "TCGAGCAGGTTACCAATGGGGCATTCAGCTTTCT" ; criterion: PBM binding z-score no lower than -0.06. Met? no

Please tell me: is the sequence "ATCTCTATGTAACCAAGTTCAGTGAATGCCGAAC" at or over -0.06 in terms of PBM binding z-score? yes

Would you say "CGTCCTAGGTCATAGGAGGTCAGTGAAGACAGAT" shows PBM binding z-score at minimum -0.06? yes
